// reported ED50 for each item listed
Test system: Rattus norvegicus
assay.details: Antithrombotic activity in Sprague-Dawley rat venous thrombosis model assessed as thrombus dry weight administered via gastric tube qd for 3 days after 2 hrs of last post dose
Give just the number in mg/kg; leave the unit off.

Below, each entry is followed by its recorded ED50 result.
[
  {
    "compound": "CCCCCCOC(=O)/N=C(/N)c1ccc(NCc2nc3cc(C(=O)N(CCC(=O)OCc4nc(C)c(C)nc4C)c4ccccn4)ccc3n2C)cc1",
    "parameter": "ED50",
    "reading": 2.1
  },
  {
    "compound": "Cc1nc(C)c(COC(=O)CCN(C(=O)c2ccc3c(c2)nc(CNc2ccc(/C(N)=N\\C(=O)OC(C)(C)C)cc2)n3C)c2ccccn2)nc1C",
    "parameter": "ED50",
    "reading": 1.8
  },
  {
    "compound": "CCCCCCOC(=O)NC(=N)c1ccc(NCc2nc3cc(C(=O)N(CCC(=O)OCC)c4ccccn4)ccc3n2C)cc1 [DABIGATRAN ETEXILATE]",
    "parameter": "ED50",
    "reading": 4.4
  }
]

Consider the additional compound presented here.
Given Cc1nc(C)c(CO)nc1C , state its recorded ED50. 42.6

Origin of measurements: ChEMBL document CHEMBL2086305
